Cited source: patent US20210355225A1

molecular target: human PD-1 expressed on the cell surface (human, UniProt Q15116 25-288); assay: cell-based or functional assay
Sequence (Q15116 25-288): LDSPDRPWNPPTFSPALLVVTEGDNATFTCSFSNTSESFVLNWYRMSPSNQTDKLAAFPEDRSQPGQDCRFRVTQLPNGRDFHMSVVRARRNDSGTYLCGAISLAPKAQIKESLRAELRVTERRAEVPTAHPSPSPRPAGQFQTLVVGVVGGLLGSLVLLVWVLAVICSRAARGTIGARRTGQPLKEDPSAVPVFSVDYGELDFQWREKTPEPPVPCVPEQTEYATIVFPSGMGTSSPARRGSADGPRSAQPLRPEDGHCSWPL
QUANTITY KIND: ED50 of NFAT luciferase luminescence, Promega PD-1/PD-L1 bioassay (µg/mL)
Express your answer in µg/mL, writing the number without its unit.

Guide cases for ED50 of NFAT luciferase luminescence, Promega PD-1/PD-L1 bioassay, answers given:
{"BINDER": "HILD (antibody, human IgG4 S228P, kappa, V domains shown, also called humanized anti-PD1 variant HI heavy chain + LD light chain) VH: QIQLVQSGSELKKPGASVKVSCKASGYTFTHYAMNWVRQAPGQGLEWMGWINTNTGEPTYAQGFTGRFVFSLDTSVSTAYLQISSLKAEDTAVYYCAREREPGMDAWGQGTLVTVSS VL: DVVMTQSPLSLPVTLGQPASISCRSSQSLVHANTNTYLEWYQQRPGQSPRLLIYKVSNRFSGVPDRFSGSGSGTDFTLKISRVEAEDVGVYYCFQGTHVPNTFGQGTKLEIKR", "REPORTED MEASUREMENT": 0.4}
{"BINDER": "HLLD (antibody, human IgG4 S228P, kappa, V domains shown, also called humanized anti-PD1 variant HL heavy chain + LD light chain) VH: QIQLVQSGSELKKPGASVKVSCKASGYTFTHYAMNWVRQAPGQGLEWMGWINTNTGEPTYAQGFTGRFVFSLDTSVSTAYLQISSLKAEDTAVYYCAREREPGMDEWGQGTLVTVSS VL: DVVMTQSPLSLPVTLGQPASISCRSSQSLVHANTNTYLEWYQQRPGQSPRLLIYKVSNRFSGVPDRFSGSGSGTDFTLKISRVEAEDVGVYYCFQGTHVPNTFGQGTKLEIKR", "REPORTED MEASUREMENT": 0.89}
{"BINDER": "HKLD (antibody, human IgG4 S228P, kappa, V domains shown, also called humanized anti-PD1 variant HK heavy chain + LD light chain; humanized anti PD-1 (HKLD variant)) VH: QIQLVQSGSELKKPGASVKVSCKASGYTFTHYAMNWVRQAPGQGLEWMGWINTNTGEPTYAQGFTGRFVFSLDTSVSTAYLQISSLKAEDTAVYYCAREREPGMDNWGQGTLVTVSS VL: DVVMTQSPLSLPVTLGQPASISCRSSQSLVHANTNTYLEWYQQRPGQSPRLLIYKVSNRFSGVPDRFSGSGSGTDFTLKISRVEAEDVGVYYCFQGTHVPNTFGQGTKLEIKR", "REPORTED MEASUREMENT": 0.69}
{"BINDER": "HJLD (antibody, human IgG4 S228P, kappa, V domains shown, also called humanized anti-PD1 variant HJ heavy chain + LD light chain) VH: QIQLVQSGSELKKPGASVKVSCKASGYTFTHYAMNWVRQAPGQGLEWMGWINTNTGEPTYAQGFTGRFVFSLDTSVSTAYLQISSLKAEDTAVYYCAREREPGMDYWGQGTLVTVSS VL: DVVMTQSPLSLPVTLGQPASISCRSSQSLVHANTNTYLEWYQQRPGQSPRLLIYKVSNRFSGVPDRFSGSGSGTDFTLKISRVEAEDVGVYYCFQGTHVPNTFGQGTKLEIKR", "REPORTED MEASUREMENT": 0.9}

Then this binder:
Tell me the measured ED50 of NFAT luciferase luminescence, Promega PD-1/PD-L1 bioassay of HELD (antibody, human IgG4 S228P, kappa, V domains shown, also called humanized anti-PD1 variant HE heavy chain + LD light chain; HELD(V94)) VH: QIQLVQSGSELKKPGASVKVSCKASGYTFTHYAMNWVRQAPGQGLEWMGWINTNTGEPTYAQGFTGRFVFSLDTSVSTAYLQISSLKAEDTAVYYCAREREPGMDTWGQGTLVTVSS VL: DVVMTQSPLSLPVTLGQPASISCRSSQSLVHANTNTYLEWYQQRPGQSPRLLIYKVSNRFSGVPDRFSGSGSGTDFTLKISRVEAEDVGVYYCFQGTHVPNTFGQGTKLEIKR , please.
0.46
